Quick list: EC50 per entry.
# Tested on: SH-SY5Y M-currents (KCNQ2, KCNQ3 and KCNQ5)
# PROCEDURE_DETAILS: SH-SY5Y native cell line FLIPR assay (voltage-sensitive dye DiBAC)
# Assay type: cell-based, mouse neuroblastoma, rat glioma hybrid cell line
# TEST_CONDITIONS: FLIPR assay, SH-SY5Y native cell line; Table 2; read-out: SH-SY5Y EC50

Recorded EC50, per entry:
| MOLECULE | PROPERTY | VALUE |
| --- | --- | --- |
| O=C(Cc1ccc(F)cc1)Nc1nc2cc(Cl)c(Cl)cn2c1-c1ccc(C(F)(F)F)cc1 | EC50 | < 500 nM |
| O=C(Cc1ccccc1)Nc1nc2ccc(F)cn2c1-c1ccccc1 | EC50 | 500 to 3000 nM |

Lookup result for "O=C(CCOc1ccc(F)cc1)Nc1nc2ccc(F)cn2c1-c1ccc(OC(F)(F)F)cc1" ; measured EC50: 500 to 3000 nM

###

# Tested on: SH-SY5Y M-currents (KCNQ2, KCNQ3 and KCNQ5)
# PROCEDURE_DETAILS: SH-SY5Y native cell line FLIPR assay (voltage-sensitive dye DiBAC)
# Assay type: cell-based, mouse neuroblastoma, rat glioma hybrid cell line
# TEST_CONDITIONS: FLIPR assay, SH-SY5Y native cell line; Table 2; read-out: SH-SY5Y EC50
Quick list: EC50 per entry.

Recorded EC50, per entry:
| SMILES_REPRESENTATION | TEST_TARGET | PROPERTY | VALUE |
| --- | --- | --- | --- |
| CC(C)(C)CC(=O)Nc1nc2ccc(F)cn2c1-c1cc(F)cc(C(F)(F)F)c1 | SH-SY5Y M-currents (KCNQ2, KCNQ3 and KCNQ5) | EC50 | < 500 nM |
| O=C(Cc1ccc(F)cc1)Nc1nc2cc(C(F)(F)F)ccn2c1-c1ccc(F)cc1 | SH-SY5Y M-currents (KCNQ2, KCNQ3 and KCNQ5) | EC50 | 500 to 3000 nM |
| Cc1ccc2nc(NC(=O)CC(C)(C)C)c(-c3cccc(OC(F)(F)F)c3)n2n1 | SH-SY5Y M-currents (KCNQ2, KCNQ3 and KCNQ5) | EC50 | < 500 nM |
| CC(C)(C)CC(=O)Nc1nc2ccc(F)cn2c1-c1cccc(Cl)c1 | SH-SY5Y M-currents (KCNQ2, KCNQ3 and KCNQ5) | EC50 | < 500 nM |
| CC(C)(C)CC(=O)Nc1nc2ccccn2c1-c1cccc(OC(F)(F)F)c1 | SH-SY5Y M-currents (KCNQ2, KCNQ3 and KCNQ5) | EC50 | < 500 nM |

Now examine the next entry.
Lookup result for "O=C(CCC(F)(F)F)Nc1nc2ccc(F)cn2c1-c1ccc(OC(F)(F)F)cc1" ; measured EC50: 500 to 3000 nM

###

Quick list: pEC50 per entry.
# Test system: SH-SY5Y M-currents (KCNQ2, KCNQ3 and KCNQ5)
# PROCEDURE_DETAILS: SH-SY5Y native cell line FLIPR assay (voltage-sensitive dye DiBAC)
# Format: cell-based, mouse neuroblastoma, rat glioma hybrid cell line
# TEST_CONDITIONS: FLIPR assay, SH-SY5Y native cell line; Table 2; read-out: SH-SY5Y EC50
pEC50: −log10 of the molar value.

Recorded pEC50, per entry:
| MOLECULE | pEC50 |
| --- | --- |
| O=C(Cc1cccc(Cl)c1)Nc1nc2ccc(F)cn2c1-c1cccc(Cl)c1 [Compound 300] | > 6.30 |
| O=C(Cc1ccc(Cl)cc1)Nc1nc2ccc(F)cn2c1-c1ccc(F)cc1 [Compound 145] | 5.52 to 6.30 |
| O=C(Cc1ccc(F)cc1)Nc1nc2ccc(F)cn2c1-c1cccc(OC(F)(F)F)c1 [Compound 183] | > 6.30 |
| O=C(Cc1ccc(C(F)(F)F)cc1)Nc1nc2ccc(F)cn2c1-c1cccc(Cl)c1 [Compound 299] | 5.52 to 6.30 |
| CC(C)(C)CC(=O)Nc1nc2ncc(F)cn2c1-c1cccc(C(F)(F)F)c1 [Compound 332] | 5.00 to 5.52 |

Lookup result for O=C(Cc1ccc(F)cc1)Nc1nc2ccc(F)cn2c1-c1ccc(OC(F)(F)F)c(F)c1 [Compound 296] ; measured pEC50: > 6.30

Lookup result for N#Cc1ccc2nc(NC(=O)Cc3ccc(F)cc3)c(-c3ccc(C(F)(F)F)cc3)n2c1 [Compound 260] ; measured pEC50: > 6.30

Lookup result for CC(C)(C)CC(=O)Nc1nc2ccccn2c1-c1ccc(C(F)(F)F)cc1 [Compound 223] ; measured pEC50: > 6.30

Lookup result for O=C(Nc1nc2ccc(F)cn2c1-c1ccc(OC(F)(F)F)cc1)C1Cc2ccccc2C1 [Compound 292] ; measured pEC50: 5.52 to 6.30

Lookup result for O=C(CC1CCCC1)Nc1nc2ccc(F)cn2c1-c1ccc(OC(F)(F)F)cc1 [Compound 170] ; measured pEC50: > 6.30

Lookup result for O=C(Cc1ccc(F)cc1)Nc1nc2ccc(F)cn2c1-c1ccc(C(F)(F)F)cc1 [Compound 126] ; measured pEC50: 5.52 to 6.30

Lookup result for O=C(Cc1ccc(F)cc1)Nc1nc2ccc(Cl)nn2c1-c1ccc(C(F)(F)F)cc1 [Compound 272] ; measured pEC50: 5.52 to 6.30

Lookup result for CC(CC(=O)Nc1nc2ccc(F)cn2c1-c1cccc(OC(F)(F)F)c1)C(F)(F)F (centres unmarked) [Compound 276] ; measured pEC50: > 6.30

Lookup result for Cc1ccc2nc(NC(=O)Cc3ccc(C(F)(F)F)cc3)c(-c3ccc(F)cc3)n2c1 [Compound 186] ; measured pEC50: > 6.30

###

# System: SH-SY5Y M-currents (KCNQ2, KCNQ3 and KCNQ5)
# PROCEDURE_DETAILS: SH-SY5Y native cell line FLIPR assay (voltage-sensitive dye DiBAC)
# Assay type: cell-based, mouse neuroblastoma, rat glioma hybrid cell line
# TEST_CONDITIONS: FLIPR assay, SH-SY5Y native cell line; Table 2; read-out: SH-SY5Y EC50
# Experimental: […] Differentiated SH-SY5Y cells were loaded with voltage-sensitive dye by incubation in Earls Balanced Salt Solution (EBSS) containing 5 mM DiBAC for 1 h. […] Changes in fluorescence were measured every 30 s for 25 min. The maximum change in fluorescence was measured and expressed as a percentage of the maximum response obtained in the presence of a positive control agent.
PROPERTY: EC50

Recorded EC50, per entry:
| MOLECULE | PROPERTY | VALUE |
| --- | --- | --- |
| Cc1cc(-c2c(NC(=O)CC(C)(C)C)nc3ccc(F)cn23)ccc1Cl | EC50 | < 500 nM |
| CCC(C)CC(=O)Nc1nc2ccc(F)cn2c1-c1ccc(F)cc1 (stereo not drawn) | EC50 | 500 to 3000 nM |
| CC(CC(=O)Nc1nc2ccc(F)cn2c1-c1ccc(F)c(F)c1)C(F)(F)F (stereo not drawn) | EC50 | < 500 nM |

Now examine the next entry.
Lookup result for "Cc1cc(-c2c(NC(=O)CC(C)(C)C)nc3ccc(F)cn23)ccc1F" ; measured EC50: < 500 nM

###

Quick list: EC50 per entry.
# Test system: SH-SY5Y M-currents (KCNQ2, KCNQ3 and KCNQ5)
# PROCEDURE_DETAILS: SH-SY5Y native cell line FLIPR assay (voltage-sensitive dye DiBAC)
# Format: cell-based, mouse neuroblastoma, rat glioma hybrid cell line
# TEST_CONDITIONS: FLIPR assay, SH-SY5Y native cell line; Table 2; read-out: SH-SY5Y EC50

Recorded EC50, per entry:
| SMILES_REPRESENTATION | EC50 |
| --- | --- |
| O=C(Nc1nc2ccc(F)cn2c1-c1ccc(C(F)(F)F)cc1)OCc1ccccc1 | 3000 to 10000 nM |
| O=C(Nc1nc2ccc(F)cn2c1-c1ccc(C(F)(F)F)cc1)N1CCC(F)(F)CC1 | 500 to 3000 nM |
| O=C(CC1CCC1)Nc1nc2ccc(F)cn2c1-c1cccc(OC(F)(F)F)c1 | < 500 nM |

Item: "O=C(CCC(F)(F)F)Nc1nc2ccc(F)cn2c1-c1cccc(C(F)(F)F)c1" | System: SH-SY5Y M-currents (KCNQ2, KCNQ3 and KCNQ5) | EC50: 500 to 3000 nM

Item: "O=C(CCC1CCCC1)Nc1nc2ccc(F)cn2c1-c1ccc(C(F)(F)F)cc1" | System: SH-SY5Y M-currents (KCNQ2, KCNQ3 and KCNQ5) | EC50: < 500 nM

Item: "O=C(Cc1ccc(F)cc1)Nc1nc2cc(C(F)(F)F)ccn2c1-c1ccc(F)cc1F" | System: SH-SY5Y M-currents (KCNQ2, KCNQ3 and KCNQ5) | EC50: 500 to 3000 nM

Item: "CC(C)(C)CC(=O)Nc1nc2cc(Cl)c(Cl)cn2c1-c1ccc(OC(F)(F)F)cc1" | System: SH-SY5Y M-currents (KCNQ2, KCNQ3 and KCNQ5) | EC50: < 500 nM

Item: "CC(C)(C)CC(=O)Nc1nc2ccc(F)cn2c1-c1ccc(C(C)(C)C#N)cc1" | System: SH-SY5Y M-currents (KCNQ2, KCNQ3 and KCNQ5) | EC50: 500 to 3000 nM
